Collected IC50 values appear next to each entry.
Biological target: Nonstructural protein 3 (Zika virus, UniProt A0A024AXB9)
Sequence (A0A024AXB9 whole entry): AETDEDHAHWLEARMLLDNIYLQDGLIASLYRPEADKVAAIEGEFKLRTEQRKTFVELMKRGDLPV
Assay: Functional biochemical assay to identify treatments for viral infectious disease that targets Zika NS2B-NS3 protease. Utilizing a direct enzyme activity measurement method, reading the fluorescence intensity is used to characterize the relative potency of inhibitors as IC50.
Set-up: species or system PRVABC59

> print(dat)
                    structure.smiles.string  result.type     result
1  CNC(=O)[C@]1(Nc2ccc3c(c2)CNC3)C(=O)Nc2ccccc21         IC50  > 99.5 µM
2  O=C(Nc1ccc2c(c1)CNC2)[C@H]1C[C@@H]1c1ccccc1         IC50    > 25 µM
3  COC1CN(C(=O)c2ccnc(NC(=O)c3cc(C4CC4)n(C)c3C)c2)C1         IC50    > 25 µM
4  CCOc1cccc(-c2cccc(NC(=O)c3cc(C4CC4)n(C)c3C)n2)c1         IC50    > 25 µM
5    CCc1cc(F)ccc1CC(=O)N1CCCc2cc(CCN)ccc21         IC50  > 99.5 µM
6  NCc1cccc(NC(=O)[C@@H](NS(=O)(=O)CCc2ccccc2)c2ccc(OCc3ccccc3)cc2)c1         IC50      34 µM

Recorded IC50 of N#Cc1ccccc1O[C@H]1CC[C@H](NS(=O)(=O)c2ccc(Cl)cc2C(=O)O)CC1 , please. > 99.5 µM

Recorded IC50 of C[C@H]1CCC[C@H](C(=O)Nc2cccc(CN)c2)O1 , please. > 99.5 µM

Recorded IC50 of NCc1cccc(NC(=O)[C@H]2CCc3nnc(-c4ccc(F)cc4)n3C2)c1 , please. > 99.5 µM

Recorded IC50 of O=C(Nc1ccc2[nH]ncc2c1)c1cc(F)cc2[nH]ncc12 , please. > 25 µM

Recorded IC50 of C[C@@H](NC(=O)c1cc(Cl)ccc1NS(=O)(=O)c1ccc(Oc2ccccc2Cl)cc1)[C@H]1CCCO1 , please. > 99.5 µM

Recorded IC50 of COc1ccc(-n2nnnc2SC(F)F)cc1 , please. > 99.5 µM

* * *

Target: Nonstructural protein 3 (Zika virus, UniProt A0A024AXB9)
Experiment: Functional biochemical assay to identify treatments for viral infectious disease that targets Zika NS2B-NS3 protease. Utilizing a direct enzyme activity measurement method, reading the fluorescence intensity is used to characterize the relative potency of inhibitors as IC50.
Design: species or system PRVABC59
pIC50: −log10 of the molar value.
Collected pIC50 values appear next to each entry.

Worked set:
> print(dat)
                    structure.smiles.string  result
1  C[C@@H](NC(=O)c1ccc2[nH]cc(C=O)c2c1)C1=CCN(C)CC1  < 4.00
2  CSCCCNC(=O)[C@H](Nc1ccc2c(c1)CNC2)c1cc(Cl)cc(C2CC2)c1    6.90
3  CNC(=O)c1cc(Cl)ccc1NS(=O)(=O)c1ccc(Oc2ccccc2Cl)cc1  < 4.00
4  CN1CCn2nc(NC(=O)[C@@H](NC(=O)OCc3ccccc3)c3ccc(OCc4ccccc4)cc3)cc2C1  < 4.00
5  Cc1ccc([C@@H](NC(=O)OCc2ccccc2)C(=O)Nc2cccc(CN)c2)cc1C  < 4.00
6  NCc1cccc(NC(=O)[C@H](NC(=O)OCc2ccccc2)c2cccc(-c3ccc4c(c3)CC(=O)N4)c2)c1    5.05
7  CCc1cc(C(=O)Nc2cccc(-n3nn[nH]c3=O)c2)sc1-c1ccc(Cl)cc1    4.61
8  Cn1cc(-c2cccc([C@H](NC(=O)OCc3ccccc3)C(=O)Nc3cccc(CN)c3)c2)cn1  < 4.00

Kindly review the next compound as well.
Recorded pIC50 of C[C@H]1C[C@@H](C(=O)Nc2cccc(CN)c2)CCO1 , please. < 4.00
